Recorded pest or weed control at 200 ppm values for a group of compounds are listed next.
# System: Green Peach Aphid (GPA) (Myzus persica)
# test.summary: Bioassay on Green Peach Aphid (GPA), cabbage seedling foliar spray
# Assay type: in vivo
# run.parameters: 72 h, corrected % control (Abbott), 200 ppm foliar spray on cabbage, three days, read-out: Rating GPA

## Input Given the compound COc1ccc(N/C(O)=C/C(=O)Nc2ccc(-c3ncn(-c4ccc(OC(F)(F)F)cc4)n3)cc2)c(C)c1 [Molecule A33] , what is its reported pest or weed control at 200 ppm?
## Output 0 to 80%

## Input Try COc1cc(C)c(N/C(=N/C(=O)Nc2ccc(-c3ncn(-c4ccc(OC(F)(F)F)cc4)n3)cc2)SCOC(=O)C(C)C)c(C)c1 [Molecule A7] next.
## Output 0 to 80%

## Input Then this compound: CCc1ccccc1N/C(S)=N/C(=O)Nc1ccc(-c2ncn(-c3ccc(OC(F)(F)F)cc3)n2)cc1 [Molecule A46]
## Output 0 to 80%

Continuing:
## Input I'd like to know its pest or weed control at 200 ppm. The compound in question is Cc1cccc(C)c1N/C(S)=N/C(=O)Nc1ccc(-c2ncn(-c3ccc(OC(F)(F)F)cc3)n2)cc1 [Molecule A11]
## Output 0 to 80%
